Provide the recorded IC50 for the entries that follow.
Tested on: hepatocellular carcinoma cells (HepG2)
Experiment notes: MTT cytotoxicity assay, HepG2
Type: cell-based
Assay context: 72 h treatment
One number for each entry, in µM.

Items follow; give IC50 for each.
1. Cc1cccc(C)c1[N+]#[C][Pt-2]12[c]3ccccc3-c3cccc([n+]31)-c1cc[nH][n+]12.[Cl-] (stereo not drawn) [Complex 1a, [Pt(C^N^N^pyr)(C?NR^1)]Cl]
2. Cc1cccc(C)c1[N+]#[C][Pt-2]12[c]3ccccc3-c3cccc([n+]31)-c1cc[nH][n+]12.O=S(=O)(O)C(F)(F)F (stereo not drawn)
3. COc1ccc([N+]#[C][Pt-2]23[c]4ccccc4-c4cccc([n+]42)-c2cc[nH][n+]23)cc1.O=S(=O)(O)C(F)(F)F (stereo not drawn)
4. O=S(=O)(O)C(F)(F)F.[C](#[N+]c1ccc2ccccc2c1)[Pt-2]12[c]3ccccc3-c3cccc([n+]31)-c1cc[nH][n+]12 (stereo not drawn)
5. CCCC[N+]#[C][Pt-2]12[c]3ccccc3-c3cccc([n+]31)-c1cc[nH][n+]12.[Cl-] (stereo not drawn)
6. COCCOCCOc1ccc([N+]#[C][Pt-2]23[c]4ccccc4-c4cccc([n+]42)-c2cc[nH][n+]23)cc1.O=S(=O)(O)C(F)(F)F (stereo not drawn)

Output line:
1: 1.3; 2: 1.7; 3: 2.7; 4: 6.2; 5: 4; 6: 9

====

Tested on: non-tumorigenic immortalized liver cells (MIHA)
Experiment notes: MTT cytotoxicity assay, MIHA
Type: cell-based
Assay context: 72 h treatment
Measured quantity: pIC50
Give bare numbers, as −log10 of the molar value.

Known results for compounds:
# Compound, Measured quantity, Experimental result
rows = [
    ("COc1ccc([N+]#[C][Pt-2]23[c]4ccccc4-c4cccc([n+]42)-c2cc[nH][n+]23)cc1.O=S(=O)(O)C(F)(F)F (stereo not drawn)", "pIC50", 5.02),
    ("COCCOCCOc1ccc([N+]#[C][Pt-2]23[c]4ccccc4-c4cccc([n+]42)-c2cc[nH][n+]23)cc1.O=S(=O)(O)C(F)(F)F (stereo not drawn)", "pIC50", 4.70),
    ("Cc1cccc(C)c1[N+]#[C][Pt-2]12[c]3ccccc3-c3cccc([n+]31)-c1cc[nH][n+]12.[Cl-] (stereo not drawn) [Complex 1a, [Pt(C^N^N^pyr)(C?NR^1)]Cl]", "pIC50", 5.20),
    ("Cc1cccc(C)c1[N+]#[C][Pt-2]12[c]3ccccc3-c3cccc([n+]31)-c1cc[nH][n+]12.O=S(=O)(O)C(F)(F)F (stereo not drawn)", "pIC50", 5.28),
    ("O=S(=O)(O)C(F)(F)F.[C](#[N+]c1ccc2ccccc2c1)[Pt-2]12[c]3ccccc3-c3cccc([n+]31)-c1cc[nH][n+]12 (stereo not drawn)", "pIC50", 4.87),
]

Input line: Give the reported value of pIC50 for this record: CCCC[N+]#[C][Pt-2]12[c]3ccccc3-c3cccc([n+]31)-c1cc[nH][n+]12.[Cl-] (stereo not drawn)
Output line: 5.09

====

Test system: breast cancer (MDA)
Experiment notes: MTT cytotoxicity assay, MDA
Format: cell-based
Assay context: 72 h treatment
Provide the recorded IC50 for the entries that follow.
Numbers only, in µM.

Known results for compounds:
# Compound, Experimental result
data = [
    ("COCCOCCOc1ccc([N+]#[C][Pt-2]23[c]4ccccc4-c4cccc([n+]42)-c2cc[nH][n+]23)cc1.O=S(=O)(O)C(F)(F)F (stereo not drawn)", 8.3),
    ("CCCC[N+]#[C][Pt-2]12[c]3ccccc3-c3cccc([n+]31)-c1cc[nH][n+]12.[Cl-] (stereo not drawn)", 5),
]

# evaluate next
Input line: Enter measured IC50, system breast cancer (MDA), for the compound shown: Cc1cccc(C)c1[N+]#[C][Pt-2]12[c]3ccccc3-c3cccc([n+]31)-c1cc[nH][n+]12.[Cl-] (stereo not drawn) [Complex 1a, [Pt(C^N^N^pyr)(C?NR^1)]Cl]
Output line: 1.6

====

Tested on: breast cancer (MDA)
Experiment notes: MTT cytotoxicity assay, MDA
Type: cell-based
Assay context: 72 h treatment
Measured quantity: IC50 (µM)
One number for each entry, in µM.

# Compound, Assayed target, Experimental result
measured = [
    ("COc1ccc([N+]#[C][Pt-2]23[c]4ccccc4-c4cccc([n+]42)-c2cc[nH][n+]23)cc1.O=S(=O)(O)C(F)(F)F (stereo not drawn)", "breast cancer (MDA)", 4.2),
]

Items follow; give IC50 for each.
1. O=S(=O)(O)C(F)(F)F.[C](#[N+]c1ccc2ccccc2c1)[Pt-2]12[c]3ccccc3-c3cccc([n+]31)-c1cc[nH][n+]12 (stereo not drawn)
2. Cc1cccc(C)c1[N+]#[C][Pt-2]12[c]3ccccc3-c3cccc([n+]31)-c1cc[nH][n+]12.O=S(=O)(O)C(F)(F)F (stereo not drawn)

Output line:
7.4
2.1

====

Test system: ovarian carcinoma (A2780)
Experiment notes: MTT cytotoxicity assay, A2780
Assay type: cell-based
Assay context: 72 h treatment
Measured quantity: pIC50
One number for each entry, as −log10 of the molar value.

# Compound, pIC50
records = [
    ("O=S(=O)(O)C(F)(F)F.[C](#[N+]c1ccc2ccccc2c1)[Pt-2]12[c]3ccccc3-c3cccc([n+]31)-c1cc[nH][n+]12 (stereo not drawn) [Complex 4]", 5.30),
    ("Cc1cccc(C)c1[N+]#[C][Pt-2]12[c]3ccccc3-c3cccc([n+]31)-c1cc[nH][n+]12.[Cl-] (stereo not drawn) [Complex 1a, [Pt(C^N^N^pyr)(C?NR^1)]Cl]", 5.92),
    ("COCCOCCOc1ccc([N+]#[C][Pt-2]23[c]4ccccc4-c4cccc([n+]42)-c2cc[nH][n+]23)cc1.O=S(=O)(O)C(F)(F)F (stereo not drawn) [Complex 5]", 4.93),
]

Items follow; give pIC50 for each.
1. Cc1cccc(C)c1[N+]#[C][Pt-2]12[c]3ccccc3-c3cccc([n+]31)-c1cc[nH][n+]12.O=S(=O)(O)C(F)(F)F (stereo not drawn) [Complex 1b]
2. COc1ccc([N+]#[C][Pt-2]23[c]4ccccc4-c4cccc([n+]42)-c2cc[nH][n+]23)cc1.O=S(=O)(O)C(F)(F)F (stereo not drawn) [Complex 3]
3. CCCC[N+]#[C][Pt-2]12[c]3ccccc3-c3cccc([n+]31)-c1cc[nH][n+]12.[Cl-] (stereo not drawn) [Complex 2]

Output line:
1. 5.92
2. 5.57
3. 5.48

====

Tested on: primary bladder cancer cells
Experiment notes: MTT assay on primary bladder cancer cells
Assay type: cell-based, human
Assay context: 72 h incubation, read-out: Cytotoxic IC50, primary bladder cancer cells
Measured quantity: IC50
Hey, just the number and the unit after it is fine.

Input line: Give the reported value of IC50 for this record: Cc1cccc(C)c1[N+]#[C][Pt-2]12[c]3ccccc3-c3cccc([n+]31)-c1cc[nH][n+]12.[Cl-] (stereo not shown) [Complex 1a, [Pt(C^N^N^pyr)(C?NR^1)]Cl]
Output line: 6.9 µM

====

System: B16 melanoma
Experiment notes: MTT cytotoxicity assay, B16
Assay type: cell-based
Assay context: 72 h treatment
Provide the recorded IC50 for the entries that follow.
One number for each entry, in µM.

Known results for molecules:
# Molecule, Measured quantity, Experimental result
data = [
    ("Cc1cccc(C)c1[N+]#[C][Pt-2]12[c]3ccccc3-c3cccc([n+]31)-c1cc[nH][n+]12.O=S(=O)(O)C(F)(F)F (stereo not drawn)", "IC50", 0.42),
    ("O=S(=O)(O)C(F)(F)F.[C](#[N+]c1ccc2ccccc2c1)[Pt-2]12[c]3ccccc3-c3cccc([n+]31)-c1cc[nH][n+]12 (stereo not drawn)", "IC50", 3),
    ("COCCOCCOc1ccc([N+]#[C][Pt-2]23[c]4ccccc4-c4cccc([n+]42)-c2cc[nH][n+]23)cc1.O=S(=O)(O)C(F)(F)F (stereo not drawn)", "IC50", 6.2),
    ("COc1ccc([N+]#[C][Pt-2]23[c]4ccccc4-c4cccc([n+]42)-c2cc[nH][n+]23)cc1.O=S(=O)(O)C(F)(F)F (stereo not drawn)", "IC50", 2.6),
    ("CCCC[N+]#[C][Pt-2]12[c]3ccccc3-c3cccc([n+]31)-c1cc[nH][n+]12.[Cl-] (stereo not drawn)", "IC50", 0.85),
]

# evaluate next
Input line: Give the reported value of IC50 for this record: Cc1cccc(C)c1[N+]#[C][Pt-2]12[c]3ccccc3-c3cccc([n+]31)-c1cc[nH][n+]12.[Cl-] (stereo not drawn) [Complex 1a, [Pt(C^N^N^pyr)(C?NR^1)]Cl]
Output line: 0.66
